System: HCT-116 colon
Experiment: NCI tumour cell line growth inhibition, 48 h; in the data active = GI50 below about 0.43 µM; inactive = the rest
Outcomes: yes (1) = active, no (0) = inactive

- COMPOUND: "CCN1C(=O)N(CC)C2C1NN=c1s/c(=C3\\C(=O)N(CC(C)(C)C)c4ccccc43)c(=O)n12 (stereo not drawn)"
  DISCRETE_LABEL: "no (0)"
- COMPOUND: "CCN(Cc1ccccc1C)c1ccc(CO)c(Cl)c1"
  DISCRETE_LABEL: "no (0)"
- COMPOUND: "CN(CCO)c1ccc(N2Cc3ccccc3OC3=C2C(=O)c2c(O)ccc(O)c2C3=O)cn1"
  DISCRETE_LABEL: "yes (1)"
